target: Protein phosphatase 1D (Homo sapiens); test: Rhodamine-PBP qHTS Assay for Modulators of WT P53-Induced Phosphatase 1 (WIP1) (AID 1347425); conditions: recombinant WIP1, Rhodamine-PBP phosphate fluorescence, real-time; series mostly up to 57.5 µM
Records with an inconclusive call do not appear. Calls of active or inactive are those of the source. Calls follow the shape of the dose curve; as a rule, active = well fitted curve in the direction sought with a large enough effect; inconclusive = small, poorly fitted or top-dose-only effect, or another doubt; inactive = no such curve, though single readings can be large or run the other way.
Readout name: activity change, negative = inhibition

Some solved cases for reference:
Problem: Look up activity change, negative = inhibition for this molecule: O=C(Cn1ccnc1[N+](=O)[O-])NCc1ccccc1
Result: inactive

Problem: I am curious: what activity change, negative = inhibition value has been reported for COC(=O)N/N=C/c1c[n+]([O-])c2ccccc2[n+]1[O-] ?
Result: inactive

Problem: Give its activity change, negative = inhibition value. Item: COc1ccc(-c2cc(=O)c3c(O)cc(O[C@@H]4O[C@H](CO[C@@H]5O[C@@H](C)[C@H](O)[C@@H](O)[C@H]5O)[C@@H](O)[C@H](O)[C@H]4O)cc3o2)cc1O
Result: inactive

Problem: Bench note: what activity change, negative = inhibition did C=CCSCC1Nc2cc(Cl)c(S(N)(=O)=O)cc2S(=O)(=O)N1 (stereo not given) show?
Result: inactive

Problem: # get_value(readout='activity change, negative = inhibition', item= CC(=O)[C@@]1(O)CC[C@H]2[C@@H]3C[C@H](C)C4=CC(=O)C=C[C@]4(C)[C@@]3(F)[C@@H](O)C[C@@]21C )
Result: inactive

---
Problem: Which activity change, negative = inhibition reading was recorded for the molecule Cc1cc(-n2nc3ccc(Cl)cc3n2)c(O)c(C(C)(C)C)c1 ?
Result: inactive

Problem: Data request, read-out activity change, negative = inhibition, for CC(C(=O)O)c1ccc2c(c1)Cc1cccnc1O2 (stereo not given)
Result: inactive

Problem: Given the molecule COc1ccc(O)cc1 , what is its reported activity change, negative = inhibition?
Result: inactive

Problem: Reported activity change, negative = inhibition for CN1CCN(C(=O)C2CCCCC2)CC1 : what is it?
Result: inactive

Problem: Would you kindly share the measured activity change, negative = inhibition for CCCCCOC(=O)Nc1nc(=O)n([C@@H]2O[C@H](C)[C@@H](O)[C@H]2O)cc1F ?
Result: inactive

----------
system: HACAT; assay: qHTS assay to identify novel small-molecules to repurpose for Merkel cell carcinoma treatment (AID 1296009); settings: MCC and control cell lines, CellTiter-Glo viability, 72 h; at 44.8 µM (top of the series) unless noted; also: nearly all actives have a fitted effect of over 60% in size
Records with an inconclusive call do not appear. The source made the active and inactive calls. Calls come from the whole dose curve; as a rule, active = well fitted inhibition curve with a large enough effect; inconclusive = small, poorly fitted or top-dose-only effect; inactive = flat fitted curve, though single readings scatter.
Readout name: outcome

Please review the entries below; each comes with its answer.
Problem: Request the reported outcome associated with CCOc1ccccc1O[C@H](c1ccccc1)[C@H]1CNCCO1
Result: inactive

Problem: Requested field: outcome. Item: NC(N)=NS(=O)(=O)c1ccc(N)cc1
Result: inactive

Problem: If you can, please state the reported outcome value of CC(=O)N[C@H]1[C@H]([C@H](O)[C@H](O)CO)OC(C(=O)O)=C[C@@H]1N=C(N)N .
Result: inactive

Problem: May I ask what outcome has been recorded for COc1nccnc1NS(=O)(=O)c1ccc(N)cc1 ?
Result: inactive

Continuing:
Problem: I am curious: what outcome value has been reported for Cc1ccc(S(=O)(=O)NC(=O)NC2CCCCC2)cc1 ?
Result: inactive

Problem: What value of outcome has been reported for the following molecule? CC[N+](C)(CC)CCOC(=O)C1c2ccccc2Oc2ccccc21
Result: inactive

Problem: Please give the measured outcome for this molecule: CC(C)=CCC[C@@](C)(O)[C@H]1CC=C(C)CC1
Result: inactive

Problem: Entry O=C(O)c1ccccc1OP(=O)(O)O : reported outcome = ?
Result: inactive

Problem: I have this molecule here, CCCCOC(=O)c1ccc(N)cc1 , and I need its recorded outcome.
Result: inactive

Problem: If you can, please state the reported outcome value of CCOC(=O)[C@H](CCc1ccccc1)N[C@@H](C)C(=O)N1CCC[C@H]1C(=O)O .
Result: inactive
